- TEST NAME: amyloid nucleation score (Sup35N fusion, yeast selection) (log enrichment); library NNK1; higher = more nucleation; inactive = no reads after selection;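 note: zero at mode of non-aggregating sequences after 7 days selection at 30°C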
Would you mind labelling by amyloid nucleation score? At or over 0.3 is fulfilled, under is not fulfilled.

Example entries and their recorded answers appear below.
MSRCLIDSIEIFHWTGGRYA
not fulfilled
VELCHIRSLMFLIQHP
fulfilled
WRYRSRCMGGVVDRLLCDVW
fulfilled
GLMGLFVKWYNVVQIFQSRM
not fulfilled
MSGFTESRCMGRMVALGPFD
fulfilled

Q) Can IASDRFF be said to have amyloid nucleation score at or above 0.3?
A) fulfilled

Q) State whether the measured amyloid nucleation score reaches 0.3, counting equality as reaching it, for VSGRVGKNAGITGM
A) fulfilled

Q) Reported amyloid nucleation score at or above 0.3? SELEYPTMGVSVVRLCSSSG
A) not fulfilled

Q) Record GQMGPMKREDGVLFVVTREN ; criterion: amyloid nucleation score no lower than 0.3. Met?
A) not fulfilled

Q) Does the substance TLRVLFCRTMRRVDWSVQKV have recorded amyloid nucleation score that is 0.3 or more?
A) not fulfilled

Q) Identify whether the reported amyloid nucleation score of the following substance is 0.3 or greater: CSFFTKDSDTP
A) fulfilled

Q) Please tell me: is the substance LMLRLRVLPVA at or over 0.3 in terms of amyloid nucleation score?
A) not fulfilled

Q) Is reported amyloid nucleation score greater than or equal to 0.3 here: NVFLVRAYLMENVHFYDFMC
A) fulfilled

* * *

- TEST NAME: amyloid nucleation score (Sup35N fusion, yeast selection) (log enrichment); library NNK3; higher = more nucleation; inactive = no reads after selection
PROPERTY MEASURED: amyloid nucleation score

Below are worked cases with known answers.
SFFPIPIWCD
inactive
GASREFQTCSVGVYYVAIEK
inactive
ERFNPDEVCE
inactive
PDKWSPGAYVKWWVGTKVQM
inactive
MLSDSLHHSSNIVTLVTRGS
inactive

Q) Supply recorded amyloid nucleation score for NNAVQLYFYRLDMSYA here.
A) inactive

Q) Complete the entry with amyloid nucleation score for FFPKWFCMTLLINDVGNHDM
A) 0.921

Q) Read the entry RRVQKERSLKC and write its reported amyloid nucleation score.
A) inactive

Q) Indicate its recorded amyloid nucleation score; the sequence in question is SLLFRSLIWSTFDPCSELGP
A) inactive

Q) Answer with reported amyloid nucleation score of SVDVMTGLPTWSYLCDDETR
A) 2.2

Q) Supply recorded amyloid nucleation score for LINKHNRVMYLAICA here.
A) inactive

Q) Determine its reported amyloid nucleation score: YVGLDVVPGVLGIGFILLYD
A) inactive

Q) Return amyloid nucleation score (reported value) for this sequence: RDRCISFEYAVQTCHYECRP
A) -0.294

Q) Return value of amyloid nucleation score for input ASIPGQRYSEPVKPGTCMYV , no commentary.
A) 1.3

Q) Assign amyloid nucleation score to the following record: TFVNLFIVPGKGQSVTGGCE
A) 1.45

Q) Please list amyloid nucleation score recorded for the sequence NGDHRRCSLIT
A) inactive

Q) For the sequence GKTSGCWSFFYILIS , give its measured amyloid nucleation score value.
A) -0.388

* * *

- TEST NAME: amyloid nucleation score (Sup35N fusion, yeast selection) (log enrichment); library NNK1; higher = more nucleation; inactive = no reads after selection
Decision: amyloid nucleation score >= -0.04 yields Satisfied, all other cases yield Not satisfied.

FDRFCFIIIVQYSFHG
Satisfied
TFYVRDRAGCPW
Satisfied
ILRQIDIDATYVIFLEMSRL
Satisfied
QLLSISRILLMNRELRRR
Not satisfied

Q) Answer whether amyloid nucleation score of WSWRRVVAWLH is greater than or equal to -0.04.
A) Satisfied

Q) In plain terms: is recorded amyloid nucleation score at least -0.04 for TRWWGPLQFVYFPD ?
A) Not satisfied

Q) For this substance, is measured amyloid nucleation score -0.04 or higher? GRVFSFMIGFFVALTERTRA
A) Satisfied

Q) Check this substance for amyloid nucleation score at or above -0.04: EHSFRNRCEAANWLVWLRVI
A) Not satisfied

Q) Is the recorded value of amyloid nucleation score equal to or greater than -0.04 for this substance? TSSPSVTYLLRYRLQWTLHN
A) Satisfied

Q) Is it the case that MFYKSRLYNRYRYRHRCYNT has amyloid nucleation score reaching or exceeding -0.04?
A) Not satisfied

Q) Does the reported amyloid nucleation score for DLQSSSDNLLGYMCFSCCKH fall at or above the -0.04 mark?
A) Not satisfied

* * *

- TEST NAME: amyloid nucleation score (Sup35N fusion, yeast selection) (log enrichment); library NNK1; higher = more nucleation; inactive = no reads after selection
# binarize amyloid nucleation score: threshold 0.07 inclusive, high side Yes, low side No

Observe how each entry below is paired with its result.
IEDFEKGISVRVVTLWSWVV
No
YSWLVWGTSPV
Yes
VLCRINGVRS
Yes
SSSHPSLIGNLDTRLNWMTM
Yes
CSCYRFLGDSKWIRHHINRT
No
SNVAVRTSCYTGARMYTRWW
Yes
VDLISWLVYEKVMSRMNIYN
No
TWQAWVGCWQYQRMGTEL
Yes
MFMSWVDFNLD
No
YRSYTRNWTLTIPGCTLRSL
No

Q) Decide: is the reported value of amyloid nucleation score for GKRIYPWVLNRSH equal to or greater than 0.07?
A) No

Q) Threshold query (amyloid nucleation score >= 0.07) on GVVCCTANF
A) Yes

Q) Please indicate if the recorded amyloid nucleation score for GVSSLLGRHRRGVSFEGDSV meets or exceeds 0.07.
A) No

Q) Is reported amyloid nucleation score greater than or equal to 0.07 here: RAMCKNQCSYVMR
A) No

Q) Decide: amyloid nucleation score of DVGSNKGAIIGLMVGGVVIA >= 0.07?
A) Yes

Q) # bool: amyloid nucleation score of LKIKGGWVFVTSIW >= 0.07
A) No

* * *

- TEST NAME: amyloid nucleation score (Sup35N fusion, yeast selection) (log enrichment); library NNK2; higher = more nucleation; inactive = no reads after selection
Binary classification by amyloid nucleation score, with 0.2 as an inclusive lower bound for condition met; all other cases are condition not met.

SRLRRKEYGDWFFYYGWSTN
condition met
SLLFVNNWFSVCRKASCIGN
condition met
RVADVCTQVMRGL
condition met
LDIYYMMYYFRFSWD
condition not met
TGYFTARNSAEVKRHVNLKR
condition not met

Q) Assess whether reported amyloid nucleation score for SSDYGIQPCFTTTSLLLLFN sits at 0.2 or higher.
A) condition not met

Q) Given the entry LAHETLCLDTYRDPW , answer whether its amyloid nucleation score meets or surpasses 0.2.
A) condition not met

Q) amyloid nucleation score >= 0.2 for SIANLPFISLL ?
A) condition not met

Q) Given DCMLNGLRWEMMLYKLDCFT , state whether its amyloid nucleation score is at least 0.2.
A) condition not met

Q) Please tell me: is the substance RLTYCSQFVWTWCCNRAING at or over 0.2 in terms of amyloid nucleation score?
A) condition met

Q) # bool: amyloid nucleation score of HRNNQMQCVFAFLW >= 0.2
A) condition met

Q) Record HVVMFS ; criterion: amyloid nucleation score no lower than 0.2. Met?
A) condition not met

* * *

- TEST NAME: amyloid nucleation score (Sup35N fusion, yeast selection) (log enrichment); library NNK3; higher = more nucleation; inactive = no reads after selection
PROPERTY MEASURED: amyloid nucleation score

YLSPVKRRYD
inactive
VLSFRSRTSKNKFRGAQGVT
inactive
VSSTVGMV
0.175
MSSQCWRQIGWDTCARS
inactive
DFNDSLFLPRIDTPSLVFLQ
inactive
CFVGLRSGAVSCWGQGNYVA
inactive
TVHTNLCAMLMFTGYF
inactive
MQLDLMCCLVSCTMNTFSSR
1.54
TCKCGSALK
0.384
NSGGFSKDDGNGYKA
inactive

Q) Tell me its amyloid nucleation score given RFCAFERG as the entry.
A) inactive

Q) Fill in reported amyloid nucleation score for this entry: CWHCVIDAGFLSQYVRVFYS
A) inactive

Q) Respond only with amyloid nucleation score recorded for KCMCNLRSMFASCLYTCVVI
A) inactive

Q) Return reported amyloid nucleation score. Input substance: TGSSTDLSNYNGLGYLLNNS
A) 0.479

Q) Indicate its recorded amyloid nucleation score; the substance in question is VFLVQFFFINFLGNSN
A) 2.45

Q) In one line, give reported amyloid nucleation score of the entry RLYFYDEKCIGCHGSNSLTQ .
A) inactive

Q) Hello, please tell me recorded amyloid nucleation score for this one: SRNMLH
A) inactive

Q) Name the recorded amyloid nucleation score of the item AVVPAFDLLWRNRLITSMTS in your answer.
A) inactive

Q) Let me know recorded amyloid nucleation score for IPVQFFVQIRSGIVHFWHER , thanks.
A) 1.81

Q) Indicate the recorded amyloid nucleation score value for this substance: LIFCNATGFTYRWPLTWVVM
A) inactive

Q) Return reported amyloid nucleation score. Input substance: LNPVKKLLGRLSGSREG
A) inactive

Q) Give me measured amyloid nucleation score, please, for this substance: LDKEFAYIYSYC
A) inactive

Q) Report measured amyloid nucleation score; entry is QNMFSSANRLMSTC
A) inactive

Q) Return amyloid nucleation score (reported value) for this substance: SNPGSALDIMGTNQIYPSQH
A) inactive

Q) Fill in reported amyloid nucleation score for this entry: LRDMTGILPRGRFADETSRF
A) inactive

Q) Provide measured amyloid nucleation score value, entry: EYENLYLRVQFSYMLLFLVM
A) -1.33

Q) Give the reported value of amyloid nucleation score for this record: PLWAYKYVPGFYRVFKVCLM
A) inactive

Q) State its amyloid nucleation score: TSGAANHYLYSSVSWTFFLL
A) 0.764

Q) Provide only the value of recorded amyloid nucleation score for TQGYVFKELAGVSRYTEA
A) inactive

Q) Specify amyloid nucleation score for ICTKSALYQTMLS and stop.
A) inactive

Q) Provide one value: measured amyloid nucleation score of VSMVPRNIWCEMFCQTHADI
A) 1.26

Q) Please look at this substance and report its amyloid nucleation score: TFSNYALNVSAYRVDIFEML
A) 0.979

Q) Give me measured amyloid nucleation score, please, for this substance: AIMFLFLYTRGAYAYYLGLL
A) inactive
